- procedure text: wild-type TIM10 yeast growth inhibition – luminescence, uHTS, counter-screen for tim10-1 yeast inhibitor project, primary screen (AID 463195);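 further: wild-type TIM10 isogenic control strain grown at permissive 25 °C; 0% = DMSO yeast wells and 100% = minimal medium wells without yeast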
- run parameters: S. cerevisiae TIM10 strain growth, BacTiter-Glo luminescence, 24 h; at 10 µM
The campaign covered roughly 330,000 compounds. About 4,600 (1.4%) were called active.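 How the source made its calls: active means inhibition of 40% or more at the single tested concentration; inactive means the rest.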 The list comes from a sample in which actives are over-represented; it also holds close analogues and randomly drawn compounds.
Respond only with the outcome that fits, drawn from yes (1) (active), no (0) (inactive)

Field: example entries. Status: answers known.
{"compound": "COc1cccc(NC(=S)N(CCc2c(C)[nH]c3ccccc23)Cc2ccco2)c1", "assigned class": "no (0)"}
{"compound": "COc1cc(NS(=O)(=O)c2ccc3ccccc3c2)c2ncccc2c1", "assigned class": "no (0)"}

In this assay, the call recorded for O=C(N/N=C/c1ccc(O)c(O)c1)C1c2ccccc2Oc2ccccc21 was what? no (0)

In this assay, the call recorded for Cc1ccsc1C(=O)N[C@@H](C)c1nnc2ccccn12 was what? no (0)

In this assay, the call recorded for O=C1N(c2ccccc2)C(=Nc2ccccc2)SC12CC2 was what? no (0)

In this assay, the call recorded for COc1ccc(-n2cnc3cc(NCc4ccco4)ccc32)cc1 was what? no (0)

In this assay, the call recorded for O=c1oc2ccccc2c(NC2CCCCC2)c1NS(=O)(=O)c1ccc(Cl)cc1 was what? no (0)

* * *

- procedure text: wild-type TIM10 yeast growth inhibition – luminescence, uHTS, counter-screen for tim10-1 yeast inhibitor project, primary screen (AID 463195);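 further: wild-type TIM10 isogenic control strain grown at permissive 25 °C; 0% = DMSO yeast wells and 100% = minimal medium wells without yeast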
- run parameters: S. cerevisiae TIM10 strain growth, BacTiter-Glo luminescence, 24 h; at 10 µM; stronger effect = higher value
Screen size: about 330,000 compounds; about 4,600 (1.4%) were called active. Only a selection was taken, and actives are over-represented in it overall.
observed property: inhibition (%)
Number only, in %; omit the unit.

Here are 9 compounds together with their reported answers.
{"compound": "O=S(=O)(Nc1cccc(Oc2ccc(Cl)cc2)n1)c1ccc(F)cc1", "inhibition / %": 37.9}
{"compound": "O=C1Nc2c(Br)cc(Br)cc2C1(O)N1CCOCC1 (stereo not given)", "inhibition / %": 12.1}
{"compound": "CCOC(=O)C1(C)NC(c2ccco2)C2C(=O)N(c3ccccc3)C(=O)C21 (stereo not given)", "inhibition / %": -0.047}
{"compound": "CCCC1(C(=O)OCC)NC(c2ccc(N(C)C)cc2)C2C(=O)N(c3ccc4c(c3)OCCO4)C(=O)C21 (stereo not given)", "inhibition / %": 4.95}
{"compound": "O=C(COC(=O)c1ccc(Br)o1)NC12CC3CC(CC(C3)C1)C2", "inhibition / %": 25.9}
{"compound": "O=C1C=CC(=O)N1c1ccc(N2CCCCC2)cc1", "inhibition / %": 73.2}
{"compound": "O=C1CC(N2CCN(c3ccc(F)cc3)CC2)C(=O)N1c1ccccc1 (stereo not given)", "inhibition / %": -7.52}
{"compound": "Cc1ccc(C(C)C)c(OCc2nnc(SCC(=O)Nc3nccs3)n2C)c1", "inhibition / %": -14}
{"compound": "O=C(OCC(=O)c1cccs1)c1ccc([N+](=O)[O-])o1", "inhibition / %": 14.1}

// next item, inhibition requested
Recorded inhibition of COc1c(N2CCN(C(=S)Nc3ccccc3F)C(C)C2)c(F)cc2c(=O)c(C(=O)O)cn(C3CC3)c12 (stereo not given) , please. 2.41
